Each item that follows carries a reported IC50.
Molecular target: recombinant human DAO (diamine oxidase) (Homo sapiens, UniProt P19801)
Construct: purchased R&D systems
Sequence (P19801 20-751): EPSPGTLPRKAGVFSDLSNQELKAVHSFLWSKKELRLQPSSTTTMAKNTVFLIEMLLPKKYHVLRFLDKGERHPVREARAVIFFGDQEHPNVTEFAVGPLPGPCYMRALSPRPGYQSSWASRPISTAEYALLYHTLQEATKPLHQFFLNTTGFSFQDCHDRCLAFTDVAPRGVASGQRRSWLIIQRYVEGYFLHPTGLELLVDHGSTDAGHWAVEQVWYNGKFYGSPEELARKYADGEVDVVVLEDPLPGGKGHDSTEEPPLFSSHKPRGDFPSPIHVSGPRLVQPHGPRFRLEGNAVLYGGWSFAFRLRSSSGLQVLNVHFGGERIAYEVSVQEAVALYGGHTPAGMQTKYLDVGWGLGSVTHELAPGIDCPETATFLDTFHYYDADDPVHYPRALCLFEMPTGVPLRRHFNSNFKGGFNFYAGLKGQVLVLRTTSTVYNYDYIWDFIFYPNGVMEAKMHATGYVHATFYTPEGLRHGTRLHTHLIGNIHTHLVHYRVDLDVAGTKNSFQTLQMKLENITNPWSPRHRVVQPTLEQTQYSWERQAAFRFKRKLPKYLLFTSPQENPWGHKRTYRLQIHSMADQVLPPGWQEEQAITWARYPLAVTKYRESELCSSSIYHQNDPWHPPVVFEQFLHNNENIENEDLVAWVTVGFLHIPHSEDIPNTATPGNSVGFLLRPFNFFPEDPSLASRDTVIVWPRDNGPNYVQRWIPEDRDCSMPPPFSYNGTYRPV
Experiment: Activity on recombinant human DAO, Amplex Red method, 1 mM putrescine substrate
Type: biochemical
Details: recombinant human DAO, 1 mM putrescine substrate; read-out: Inhibitory Activity (IC50, nM) DAO
Counter-ions that a name gives are not always drawn.

Example results:
* Cc1cc(-n2cnn(C/C(=C/F)CN)c2=O)ncc1-c1ccc(-c2nc[nH]n2)cc1 | < 100 nM
* CC(=O)Nc1ccc(-c2ccnc(-n3cnn(C/C(=C/F)CN)c3=O)c2)cc1 | < 30 nM
* NC/C(=C\F)Cn1ncn(-c2cc(-c3ccc4nonc4c3)ccn2)c1=O | < 30 nM
* NC/C(=C\F)Cn1ncn(-c2ccnc(-c3ccc(C(=O)N4CCOCC4)cc3)c2)c1=O [Example 208, hydrochloride] | < 10 nM

query: Assign IC50 to the following record: CC(C)c1nc(-c2cccc(-c3cc(-n4cnn(C/C(=C/F)CN)c4=O)ccn3)c2)no1 [Example 206, hydrochloride]
result: < 10 nM

query: Could you please provide reported IC50 for NC/C(=C\F)Cn1ncn(-c2ncc(-c3cccc(-c4nnc[nH]4)c3)s2)c1=O ? Thanks!
result: < 100 nM

====

Target: recombinant human MAO-A (monoamine oxidase-A) (Homo sapiens, UniProt P21397)
Construct: purchased Sigma-Aldrich
Sequence (P21397 whole entry): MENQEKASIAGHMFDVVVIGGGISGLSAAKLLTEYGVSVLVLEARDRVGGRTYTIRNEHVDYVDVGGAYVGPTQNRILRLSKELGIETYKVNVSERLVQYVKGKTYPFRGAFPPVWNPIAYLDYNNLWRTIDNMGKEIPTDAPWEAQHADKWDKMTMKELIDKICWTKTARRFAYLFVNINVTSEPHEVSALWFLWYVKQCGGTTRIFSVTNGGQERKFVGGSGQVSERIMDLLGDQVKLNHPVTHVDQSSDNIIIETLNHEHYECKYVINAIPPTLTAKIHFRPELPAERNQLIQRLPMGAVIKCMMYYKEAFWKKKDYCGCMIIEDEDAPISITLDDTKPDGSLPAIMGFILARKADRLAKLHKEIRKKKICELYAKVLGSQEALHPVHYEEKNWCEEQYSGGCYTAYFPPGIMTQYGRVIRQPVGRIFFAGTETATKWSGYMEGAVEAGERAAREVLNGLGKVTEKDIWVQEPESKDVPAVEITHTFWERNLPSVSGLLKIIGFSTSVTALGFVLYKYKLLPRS
Assay: Activity on recombinant human MAO-A, Amplex Red method, 0.5 mM tyramine substrate
Type: biochemical
Details: 0.5 mM tyramine, read-out: Inhibitory Activity (IC50, nM) MAO-A
Structures can show the parent of a compound that is named as a salt.
Measured Parameter: IC50

Reference set (5 entries):
• NC/C(=C/F)Cn1ncn(-c2ccc(OCc3ccccc3)cc2)c1=O = 2100 nM
• CC(=O)Nc1ccc(-c2cccc(-n3cnn(C/C(=C/F)CN)c3=O)c2C)cc1 = > 100000 nM
• NC/C(=C\F)Cn1ncn(-c2ccc(-c3ccc4c(c3)OCO4)cc2F)c1=O [Example 45, hydrochloride] = 198 nM
• Cc1cc(Br)cnc1-n1cnn(C/C(=C/F)CN)c1=O [Example 32, hydrochloride] = 93000 nM
• NC/C(=C/F)Cn1ncn(-c2cccc(-c3ccc4c(c3)OCCO4)c2)c1=O [Example 94, hydrochloride] = > 100000 nM

Please turn your attention to the following entry.
query: Give a short answer stating reported IC50 for NC/C(=C\F)Cn1ncn(-c2cccc(-c3ccc(OC(F)(F)F)cc3)c2)c1=O [Example 50, hydrochloride] .
result: > 10000 nM

====

Biological target: recombinant human MAO-A (monoamine oxidase-A) (Homo sapiens, UniProt P21397)
Construct: purchased Sigma-Aldrich
Assay: Activity on recombinant human MAO-A, Amplex Red method, 0.5 mM tyramine substrate
Type: biochemical
Conditions: 0.5 mM tyramine substrate, read-out: Inhibitory Activity (IC50, nM) MAO-A
Structures can show the parent of a compound that is named as a salt.
# IC50 listing for each entry below
Express the result in nM but write the number alone.

• Cc1cc(-c2ccc3c(c2)NC(=O)CO3)cnc1-n1cnn(C/C(=C/F)CN)c1=O [Example 155, hydrochloride] = 16000
• CC(=O)Nc1ccc(-c2ccnc(-n3cnn(C/C(=C/F)CN)c3=O)c2)cc1 [Example 166] = 20700
• Cc1cc(-c2ccc3nonc3c2)cnc1-n1cnn(C/C(=C/F)CN)c1=O [Example 152, hydrochloride] = 7420

Next compound, IC50 to be filled in.
query: Name the value of IC50 reported for NC/C(=C\F)Cn1ncn(-c2cccc(/C=C/c3ccc(C(F)(F)F)cc3)n2)c1=O [Example 238, Hydrochloride] when tested on recombinant human MAO-A (monoamine oxidase-A) (Homo sapiens, UniProt P21397).
result: 34000

Where do the numbers come from? From patent US11492335B2.
